Test system: CWR22R
Experiment: Inhibition of prostate specific antigen expression in human 22Rv1 cells assessed as PSA protein level at 10 uM after 72 hrs by densitometry relative to untreated control
Format: functional
Set-up: scale not given: the % may be the effect or the level left
Parameter Activity: see the listing below.
Provide only the numeric value, understood in %.

Worked cases, answers included:
O=c1c(O)c(-c2ccc(O)c(O)c2)oc2cc(F)ccc12; 21
O=c1c(O)c(-c2ccc(O)cc2)oc2cc(O)cc(O)c12; 33

Query: What measured Activity goes with "COc1ccc(-c2oc3cc(F)cc(F)c3c(=O)c2O)cc1" ?
Response: 85

Query: What measured Activity goes with "O=c1c(O)c(-c2ccc(O)cc2)oc2cc(F)cc(F)c12" ?
Response: 77

Query: What measured Activity goes with "COc1cccc(-c2oc3ccccc3c(=O)c2O)c1" ?
Response: 27

Query: What measured Activity goes with "O=c1c(O)c(-c2cc(O)c(O)c(O)c2)oc2cc(F)ccc12" ?
Response: 111

====

System: CWR22R
Experiment: Antiproliferative activity against human 22Rv1 cells incubated up to 144 hrs by Coulter particle count and size analyzer
Type: functional, cell-based
Details: 22Rv1, 144 h
Parameter IC50: see the listing below.
Provide only the numeric value, understood in µM.

COc1cc(-c2oc3cc(F)ccc3c(=O)c2O)cc(OC)c1OC; 4
COc1cc(-c2oc3ccccc3c(=O)c2O)cc(OC)c1OC; 3.1
O=c1c(O)c(-c2ccccc2)oc2ccccc12 [FLAVONOL]; 14.9
COc1cc(OC)cc(-c2oc3ccccc3c(=O)c2O)c1; 12.4
O=c1c(O)c(-c2cc(O)c(O)c(O)c2)oc2cc(O)cc(O)c12 [MYRICETIN]; 13.1
COc1ccc(-c2oc3ccccc3c(=O)c2O)cc1; 30.5
COc1cccc(-c2oc3ccccc3c(=O)c2O)c1; 5.3
COc1ccc(-c2oc3cc(F)cc(F)c3c(=O)c2O)cc1OC; 7.4
O=c1c(O)c(-c2cc(O)c(O)c(O)c2)oc2cc(F)ccc12; 11.6

We next turn to a different compound, shown below.
Query: # value lookup — system CWR22R, readout IC50, item "O=c1c(O)c(-c2ccc(O)cc2)oc2cc(F)cc(F)c12"
Response: 28.7

====

Test system: CWR22R
Assay: Antiproliferative activity against human 22Rv1 cells incubated up to 144 hrs by Coulter particle count and size analyzer
Assay type: functional, cell-based
Settings: 22Rv1, 144 h
metric: IC50

COc1cc(-c2oc3ccccc3c(=O)c2OC)cc(OC)c1OC; 2.6 µM

Query: What measured IC50 goes with "O=c1c(O)c(-c2cc(O)c(O)c(O)c2)oc2ccccc12" ?
Response: 7.7 µM

Query: What measured IC50 goes with "COc1cc(-c2oc3cc(F)cc(F)c3c(=O)c2O)cc(OC)c1OC" ?
Response: 5.9 µM

Query: What measured IC50 goes with "COc1cc(-c2oc3ccc(F)cc3c(=O)c2O)cc(OC)c1OC" ?
Response: 3.3 µM

Query: What measured IC50 goes with "COc1ccc(-c2oc3cc(F)cc(F)c3c(=O)c2O)cc1" ?
Response: 15.8 µM

Query: What measured IC50 goes with "O=c1c(O)c(-c2ccc(O)c(O)c2)oc2cc(O)ccc12" ?
Response: 25.9 µM

Query: What measured IC50 goes with "O=c1c(O)c(-c2cc(O)c(O)c(O)c2)oc2cc(O)ccc12" ?
Response: 7.1 µM

Where do the numbers come from? From ChEMBL document CHEMBL2046318.
